Would you kindly list apparent KD of MS2 coat protein for each of these sequences?
- System: MS2 coat protein
- Test protocol: apparent KD of MS2 coat protein; designed switch direction (-1 OFF switch, 1 ON switch): 1; higher = weaker reporter binding
- Condition parameters: input ligand: FMN 200 uM
Report the figure along with its unit, number first.

# batch: return apparent KD of MS2 coat protein for each of the 4 sequences below
1. GCUCGCACGAUGACCCACAUGAGGAUCACCCAUGUGUGUGGGUAGGAUAUCUAUAUUAAGGAUUUAGAGAAGGGCCGAGCGAGC [SameState NG3 #22] (Eterna round: R96, puzzle: Same State NG 3)
2. UGGUACAUGGGAGGAUAUCUCAUGGAGACAUGAGGAUCACCCAUGUAGUUGGGCCGGAAACGGUGAGAGAAGGCCCAUGUACCU [JL SSNG1 3.71] (Eterna round: R96, puzzle: Same State NG 2)
3. AUUAUUUAUGCAGGAUAUGAUUAACAUGAGGAUCACCCAUGUGGUGUUGUGAGUAAGGAGAGUGAUCAGAAGGGCAGUUUUUUU [JMF's solution 43] (Eterna round: R96, puzzle: Same State NG 2)
4. CCGGCAAGUAUAGGAUAUCCCGCUACAGAAGCGGGAGAAGGGUGCCAAACAUGAGGAUCACCCAUGUACACCGGAAAUAUAUAA [Soorve] (Eterna round: R96, puzzle: Same State NG 1)

450 nM
377 nM
568 nM
36.4 nM

For GCAAUAAGGUGAGGAUAUGCAGAGGAUCACCCUGUAGAAGGCAUCAGGUGAGGAUAUGCAGAGGAUCACCCUGUAGAAGGCAUC [pwkr ssNG DX.15] (Eterna round: R96, puzzle: Same State NG 1) , what is its reported apparent KD of MS2 coat protein?
100 nM
